Test system: SW-620 (Colon cancer)
protocol summary: NCI-60 screen (SRB, 48 h)
conditions used: Homo sapiens, SW-620, 48 h, read-out: TGI
measured attribute: IC (TGI) (µM)
Write the number in µM without appending the unit.

C=C(C)[C@@H]1CC[C@]2(C(=O)N[C@H](CO)Cc3ccccc3)CC[C@]3(C)[C@H](CC[C@@H]4[C@@]5(C)CCCNC(C)(C)[C@@H]5CC[C@]43C)[C@@H]12 [Compound 11] = 2.26
C=C(C)C1CCC2(CO)CCC3(C)C(CCC4C5(C)CCCNC(C)(C)C5CCC43C)C12 (stereo not drawn) [Compound 1, Azepanobetulin] = 3.41
C=C(C)[C@@H]1CC[C@]2(C)[C@H](CC=C3[C@@H]4[C@@H](C)[C@H](C)CC[C@]4(CO)CC[C@]32C)[C@@]1(C)CCCN [Compound 19] = 2.11
C=C(C)[C@@H]1CCC=C2CC[C@]3(C)[C@H](CC[C@@H]4[C@@]5(C)CCCNC(C)(C)[C@@H]5CC[C@]43C)[C@H]21 [Compound 8] = 3.75
Cc1ccc(S(=O)(=O)OC[C@]23CCC(C)(C)C[C@H]2C2=CC[C@@H]4[C@@]5(C)CCCNC(C)(C)[C@@H]5CC[C@@]4(C)[C@]2(C)CC3)cc1 [Compound 15] = 3.36

// below: IC (TGI) requested for another compound
IC (TGI) lookup needed for CC1(C)NCCC[C@]2(C)[C@H]3C=CC4=C5C[C@@](C)(CO)CC[C@]5(C)CC[C@@]4(C)[C@]3(C)CC[C@@H]12 [Compound 6, azepano-glycyrrhetol-diene] , thanks.
18.8

====

# maps each entry to its CC50
Tested on: OVCAR-8 (Ovarian cancer)
protocol summary: NCI-60 screen (SRB, 48 h)
conditions used: Homo sapiens, OVCAR-8, read-out: LC50
The response must be a number in µM with no trailing unit.

C=C(C)C1CCC2(CO)CCC3(C)C(CCC4C5(C)CCCNC(C)(C)C5CCC43C)C12 (stereo not drawn) = 6.73

Please give the measured CC50 for this compound: "C=C(C)[C@@H]1CC[C@]2(C)[C@H](C=CC3=C4C[C@@](C)(CO)CC[C@]4(C)CC[C@]32C)[C@@]1(C)CCCN"
10

# input compound: "C=C(C)[C@@H]1CCC=C2CC[C@]3(C)[C@H](CC[C@@H]4[C@@]5(C)CCCNC(C)(C)[C@@H]5CC[C@]43C)[C@H]21" ; wanted: its CC50
7.79

====

Test system: Prostate cancer subpanel
protocol summary: NCI-60 screen, subpanel
conditions used: Homo sapiens, 48 h, read-out: TGI MG_MID
measured attribute: IC (TGI) (µM)
# output: bare number, implied unit µM

C[C@H]1[C@H](C)CC[C@]2(C(=O)Nc3ccc4ncccc4c3)CC[C@]3(C)C(=CC[C@@H]4[C@@]5(C)CCCNC(C)(C)[C@@H]5CC[C@]43C)[C@H]12 = 3.28

// lookup IC (TGI) for "C[C@H]1[C@H](C)CC[C@]2(CO)CC[C@]3(C)C(=CC[C@@H]4[C@@]5(C)CCCNC(C)(C)[C@@H]5CC[C@]43C)[C@H]12"
3.06

Suppose we examine the compound "CC1(C)CC[C@]2(CO)CC[C@]3(C)C(=CC[C@@H]4[C@@]5(C)CCCNC(C)(C)[C@@H]5CC[C@]43C)[C@@H]2C1" ; what IC (TGI) value has been reported?
4.02

Which IC (TGI) is reported for this compound? "Cc1ccc(S(=O)(=O)OC[C@@]2(C)CC[C@]3(C)CC[C@]4(C)C(=C3C2)C=C[C@@H]2[C@@]3(C)CCCNC(C)(C)[C@@H]3CC[C@]24C)cc1"
3.19

Which IC (TGI) value belongs to "C=C(C)[C@@H]1CCC=C2CC[C@]3(C)[C@H](CC[C@@H]4[C@@]5(C)CCCNC(C)(C)[C@@H]5CC[C@]43C)[C@H]21" ?
3.2

# lookup: IC (TGI) of "CC1(C)NCCC[C@]2(C)[C@H]3C=CC4=C5C[C@@](C)(CO)CC[C@]5(C)CC[C@@]4(C)[C@]3(C)CC[C@@H]12"
8.66

For the compound shown here, "Cc1ccc(S(=O)(=O)OC[C@]23CCC(C)(C)C[C@H]2C2=CC[C@@H]4[C@@]5(C)CCCNC(C)(C)[C@@H]5CC[C@@]4(C)[C@]2(C)CC3)cc1" , give the reported IC (TGI).
3.27

What value of IC (TGI) has been reported for the following compound? "C=C(C)[C@@H]1CC[C@]2(COS(=O)(=O)c3ccc(C)cc3)CC[C@]3(C)[C@@H](CC[C@@H]4[C@@]5(C)CCCNC(C)(C)[C@@H]5CC[C@]43C)[C@@H]12"
3.15

Would you kindly share the measured IC (TGI) for "C=C(C)[C@@H]1CC[C@]2(C(=O)N[C@H](CO)Cc3ccccc3)CC[C@]3(C)[C@H](CC[C@@H]4[C@@]5(C)CCCNC(C)(C)[C@@H]5CC[C@]43C)[C@@H]12" ?
2.75

I'd like to know its IC (TGI). The compound in question is "C=C(C)[C@@H]1CC[C@]2(C)[C@H](CC=C3[C@@H]4[C@@H](C)[C@H](C)CC[C@]4(CO)CC[C@]32C)[C@@]1(C)CCCN"
5.25

GET /values?readout=IC (TGI)&item= C=C(C)C1CCC2(CO)CCC3(C)C(CCC4C5(C)CCCNC(C)(C)C5CCC43C)C12 (centres unmarked)
2.98
